Form field: GI50 (one value per entry).
system: TK-10; assay: NCI tumour cell line growth inhibition, 48 h
Activity calls are given as the source filed them. Rule as the data show it: active = GI50 up to about 1.1 µM and inactive = higher.

Query GI50 for COc1cc(/C=C/c2cccnc2)cc(OC)c1OC 58.6 µM (inactive)

Query GI50 for O[C@H]1[C@@H]2OC[C@@H](O)[C@H](OCc3ccccc3)[C@@](COCc3ccccc3)(O2)[C@@H]1OCc1ccccc1 17.2 µM (inactive)

Query GI50 for CC(=O)OCC1OC(n2c3c(cc(C#N)c2=S)CCC3)C(OC(C)=O)C(OC(C)=O)C1OC(C)=O (stereo not drawn) > 100 µM (inactive)

* * *

tested on: TK-10; experiment: NCI tumour cell line growth inhibition, 48 h
Active and inactive are the calls of the source. Rule as the data show it: active = GI50 up to about 1.1 µM and inactive = higher. Where a SMILES comes first, the peptide text is derived from it. [ ]: non-standard residue; d: D form. The star is where a group is joined. Phe(4-NO2) = N[CH](Cc1ccc([N+](=O)[O-])cc1)C(=O)O; Boc = CC(C)(C)OC(=O)*; OtBu = CC(C)(C)O*
Return exactly one item of active, inactive

Just curious, what result did O=C1OC(=O)c2c1nc1ccccc1c2-c1ccccc1 get here? inactive

Just curious, what result did O=C1C(=O)N(C(=O)c2ccc(Cl)c(Cl)c2)c2ccccc21 get here? inactive

Just curious, what result did CC(=O)O[C@H]1C#C/C=C\C#CC[C@@H]2C(=O)N(C(=O)OC(C)(C)C)[C@@H]12 get here? inactive

Just curious, what result did CNC1=Nc2ccccc2C(=S)N2CSC[C@@H]12 get here? inactive

Just curious, what result did Clc1c(Cl)c(Cl)c2c(nnn2C2CCCO2)c1Cl (stereo not given) get here? inactive

Just curious, what result did O=C1c2cc3c(cc2CC12Cc1cc4c(cc1C2=O)CCCC4)CCCC3 get here? inactive

Just curious, what result did Cc1ccc(S(=O)(=O)OC(c2ccc(Cl)cc2Cl)C2OC(=O)c3ccccc32)cc1 (stereo not given) get here? inactive

Just curious, what result did CN(Cc1nc2c(N)nc(N)nc2nc1N)c1ccc(C(=O)NC(CCC(=O)O)C(=O)O)cc1 (stereo not given) get here? active

Just curious, what result did NCC(O)CNC(=O)c1ccc(-c2ccc(-c3ccc(C(=O)NCC(O)CN)cc3)o2)cc1 (stereo not given) get here? inactive

Just curious, what result did COc1ccc(N2C(=O)C3c4[nH]c5ccc(F)cc5c4C4CCC(C(C)(C)C)CC4C3C2=O)cc1 (stereo not given) get here? inactive

Just curious, what result did COc1ccc(N[C@H](C[S+]([O-])c2ccc(C)cc2)C(F)(F)C(F)(F)F)cc1 (stereo not given in full) get here? inactive

Just curious, what result did CN(C)CCNc1nc(-c2cccs2)cc(-c2cccs2)n1 get here? inactive

Just curious, what result did Cc1ccc(/N=N/N(C)C(C)C(O)Cc2ccccc2)cc1 (stereo not given) get here? inactive

Just curious, what result did CC(=O)OCCOCn1c2ccccc2c2c3c(c4c5ccccc5n(COCCOC(C)=O)c4c21)C(=O)N(Cc1ccccc1)C3=O get here? inactive

Just curious, what result did CC(=O)N(CCc1ccccc1)C(C)(C#N)c1ccccc1 (stereo not given) get here? inactive

Just curious, what result did CCOC(=O)C1=C(C)N2CCOC2(C)C(C(=O)OC)C1c1cccc(Cl)c1 (stereo not given) get here? inactive

Just curious, what result did CCCCC(/C=N/NC(=N)N)CC.Cc1cc(O)c(C(C)C)cc1S(=O)(=O)O get here? inactive

Just curious, what result did CC(=O)NC(CCC(=O)OC(C)(C)C)C(=O)NC(CCC(=O)OC(C)(C)C)C(=O)NC(Cc1ccc([N+](=O)[O-])cc1)C(=O)NC(CCCCNC(=O)OC(C)(C)C)C(=O)NC(CCCCNC(=O)OC(C)(C)C)C(=O)NCC(=O)O (stereo not given) (Ac-E(OtBu)E(OtBu)[Phe(4-NO2)]K(Boc)K(Boc)G-OH; configuration not given here) get here? inactive

Just curious, what result did CC(C)(C)CC(C)(C)c1cc2c(O)c(c1)Cc1cc(C(C)(C)CC(C)(C)C)cc(c1O)Cc1cc(C(C)(C)CC(C)(C)C)cc(c1O)Cc1cc(C(C)(C)CC(C)(C)C)cc(c1O)C2 get here? inactive

Just curious, what result did COc1c(OC)c(OC)c2c(c1OC)c(=O)c1ccccc1n2C get here? inactive

* * *

Form field: GI50 (one value per entry).
tested on: NCI-H23; assay: NCI tumour cell line growth inhibition, 48 h
Calls of active or inactive are those of the source. No stated cut-off is given here; in the data, active = GI50 up to about 1.1 µM and inactive = higher.

>>> experimental_result("CC1(C)CC(=O)C(CC2C(=O)c3ccccc3C2=O)C(=O)C1C(=O)C(=O)Nc1cccc2ccc(O)cc12 (stereo unspecified)")
"67.1 µM (inactive)"
>>> experimental_result("Cc1ccc(/C=C/C(=O)C(C)C)cc1")
"46.6 µM (inactive)"
>>> experimental_result("O=C1C(O)=C(Cc2ccccc2)C(=O)c2ccccc21")
"49.1 µM (inactive)"
>>> experimental_result("COc1ccc(N2C(=O)C3c4[nH]c5ccc(C)cc5c4C4CCC(C(C)(C)C)CC4C3C2=O)cc1 (stereo unspecified)")
"22.3 µM (inactive)"
>>> experimental_result("CCCCCCC(C)CCCCCCCCCCC(=O)O (stereo unspecified)")
"> 100 µM (inactive)"
>>> experimental_result("CCO[C@@H]1OC(=O)[C@](C)(C(C)=O)[C@@H]1C")
"16.8 µM (inactive)"
>>> experimental_result("Cc1ccc2c3c(cnc2n1)C(=O)OCCN3C")
"> 100 µM (inactive)"
>>> experimental_result("CCCn1c(SCC)c2ccccc2c1-c1nc(F)nc(F)n1")
"> 100 µM (inactive)"

Query GI50 for Cc1cc(C)c(-n2[nH]c(=O)n(C)c2=O)c(C)c1 > 100 µM (inactive)

Query GI50 for COc1c(Cl)ccc(Cl)c1-c1nnc(-c2c(Cl)c(Cl)c(Cl)c(Cl)c2-c2nc3cc(C(=O)c4ccccc4)ccc3[nH]2)o1 78.2 µM (inactive)

Query GI50 for O=C(O)C1OC1(c1cccc(Cl)c1)c1ccccc1Cl (stereo unspecified) 20.8 µM (inactive)

* * *

system: K562; test: NCI tumour cell line growth inhibition, 48 h
Structures can show the parent of a compound that is named as a salt. The source made the active and inactive calls. Cut-off read from the data, not from the text of the source: active = GI50 up to about 1.1 µM and inactive = higher.
Return exactly one item of active, inactive

>>> category_label("O=c1c2cc([N+](=O)[O-])ccc2[nH]n1Cc1ccccn1")
"inactive"
>>> category_label("Cc1ccnc(NC(=S)Nc2cccc(Cl)c2)c1")
"inactive"
>>> category_label("CCc1cccc(C)c1NC(=O)C(=O)CC(=O)c1ccc(Cl)s1")
"inactive"
>>> category_label("CCOC(=O)c1nc2ccc(C(F)(F)F)cc2nc1Nc1ccc(OC)c(OC)c1")
"inactive"
>>> category_label("CCCCc1oc2ccccc2c1C(=O)c1cc(I)c(OCCN(CC)CC)c(I)c1 [AMIODARONE HYDROCHLORIDE]")
"inactive"

Just curious, what result did CN(C)c1ccc(/C=C(\NC(=O)c2ccccc2)c2nc3ccccc3c(=O)o2)cc1 get here? inactive

Just curious, what result did CC(=O)OC1CC2CCC1(C)C2(C)C (stereo unspecified) get here? inactive

Just curious, what result did Cc1ccccc1NC(=O)CC1C(=O)Nc2ccccc2[S+]1[O-] (stereo unspecified) get here? inactive

Just curious, what result did CC(C)C(Br)CC/C(CBr)=C(\Cl)CCl (stereo unspecified) get here? active

Just curious, what result did Clc1ccc(C2N3CCCCC3[C@@H]3c4[nH]c5ccccc5c4CCN23)cc1 (stereo partly specified) get here? inactive

Just curious, what result did Nc1nnc2oc3ccc4ccccc4c3cc1-2 get here? inactive

* * *

test system: CAKI-1; test: NCI tumour cell line growth inhibition, 48 h
Calls of active or inactive are those of the source. Rule as the data show it: active = GI50 up to about 1.1 µM and inactive = higher.
Return exactly one item of Y = active, N = inactive

Please review the entries below; each comes with its answer.
>>> category_label("Cn1c(=O)c2c(nc3n2CC(C(=O)O)N3)n(C)c1=O (centres undefined)")
"N"
>>> category_label("Cc1ccc(Nc2nc(=O)c3c4ccccc4n(C(=O)OC(C)(C)C)c3s2)cc1")
"N"
>>> category_label("CC(=O)OCC1OC(O[C@@H]2C[C@H]3C(C)(C)[C@H](OC(C)=O)CC[C@]3(C)[C@H]3CC[C@@H]4[C@]5(CC[C@@]4(C)[C@@]32C)O[C@@H]([C@H](O)C(C)(C)O)C[C@@H]5C)C(O)C(O)C1O (some centres undefined)")
"N"

Just curious, what result did CC(CCN)(CCN)[N+](=O)[O-] get here? N

Just curious, what result did O=[N+]([O-])c1ccc(S[C@@H]2[C@H]3c4c(-c5ccccc5)[nH]c(-c5ccccc5)c4[C@@H]2C[C@H]3Cl)cc1 get here? N

Just curious, what result did COC1C(O)=C2C(=O)OC(C)(O)/C=C/C=C\C=C/C=C/C(c3ccccc3)NC(=O)/C=C/C=C/C=C/C=C/C2(C)C1O (centres undefined) get here? Y

Just curious, what result did CCOP(=O)(OCC)C(C)(CC)NC (centres undefined) get here? N

Each recorded value in this set is attributed to ChEMBL document CHEMBL1201862.
